test: Acute intervention: nutrikinetics of plasma metabolites after ingestion of L. citriodora extract (untargeted HPLC-ESI-QTOF-MS); details: 6 h after L. citriodora extract
Where a name gives a salt, the structure may show the parent alone.
TEST_READOUT: mean chromatographic area in plasma, T6
Enter a number only.

Q) Recorded mean chromatographic area in plasma, T6 for COc1cc(CCO)ccc1OS(=O)(=O)O [homovanillyl alcohol sulfate] , please?
A) 81

Q) And "C=C(C)[C@@H]1[C@H]2OC(=O)[C@@H]1[C@]1(O)C[C@H]3O[C@]34C(=O)O[C@H]2[C@]14C" ?
A) 0

Q) And COc1cc(/C=C/C(=O)O)ccc1O[C@@H]1O[C@H](C(=O)O)[C@@H](O)[C@H](O)[C@H]1O [ferulic acid 4-O-glucuronide] ?
A) 217

Q) And COc1cc(C=CC(=O)O)ccc1OS(=O)(=O)O [ferulic acid 4-sulfate] ?
A) 222

Q) And "Cc1cccc(O)c1O" ?
A) 91

Q) And CC(C)=C1CC2(C)C(=CC1=O)CCC(OC1OC(CO)C(O)C(O)C1O)C2C (centres unmarked) [isopetasoside] ?
A) 14

Q) And COc1cc(CCCO)ccc1OC1OC(CO)C(O)C(O)C1O (single isomer, unassigned; isomer 2) [dihydroconiferin isomer 2, dihydroconiferin] ?
A) 0

Q) And COc1cc(C(=O)O)ccc1OS(=O)(=O)O [vanillic acid 4-O-sulfate isomer 1, vanillic acid 4-O-sulfate] ?
A) 548

Q) And COc1cc(CCCO)ccc1OC1OC(CO)C(O)C(O)C1O (single isomer, unassigned; isomer 1) [dihydroconiferin isomer 1, dihydroconiferin] ?
A) 0

Q) And CC1=CC(=O)CC(C)(C)C1(O)/C=C/C(C)=C/COC1OC(CO)C(O)C(O)C1O (single isomer, unassigned; isomer 3) [abscisic alcohol 11-glucoside isomer 3, abscisic alcohol 11-glucoside] ?
A) 0

Q) And CC(O)/C=C\C/C=C\C/C=C\CCCCCCCC(=O)O (centres unmarked) [17-hydroxylinolenic acid] ?
A) 31

Q) And CC1=CC(=O)CC(C)(C)C1(O)/C=C/C(C)=C/COC1OC(CO)C(O)C(O)C1O (single isomer, unassigned; isomer 2) [abscisic alcohol 11-glucoside isomer 2, abscisic alcohol 11-glucoside] ?
A) 0

Q) And CC1=CC(=O)CC(C)(C)C1(O)/C=C/C(C)=C/COC1OC(CO)C(O)C(O)C1O (single isomer, unassigned; isomer 1) [abscisic alcohol 11-glucoside isomer 1, abscisic alcohol 11-glucoside] ?
A) 0

Q) And COc1cc(C(=O)O)ccc1OS(=O)(=O)O [vanillic acid 4-O-sulfate isomer 2, vanillic acid 4-O-sulfate] ?
A) 0

* * *

assay: Acute intervention: nutrikinetics of plasma metabolites after ingestion of O. europaea extract (untargeted HPLC-ESI-QTOF-MS); conditions: 0.5 h after O. europaea extract
Values of mean chromatographic area in plasma, T0.5 strictly less than 30 map to Y, and values of at least 30 map to N.

Q) Would you kindly verify if mean chromatographic area in plasma, T0.5 of OC[C@H]1O[C@@H](OCc2ccoc2)[C@H](O)[C@@H](O)[C@@H]1O (single isomer, unassigned; isomer 2) [3-furanmethanol glucoside isomer 2, 3-furanmethanol glucoside] is strictly less than 30?
A) N

Q) And "COc1cc(-c2oc3cc(O[C@@H]4O[C@@H](C)[C@H](O)[C@@H](O)[C@H]4O)cc(O)c3c(=O)c2O[C@@H]2O[C@H](CO)[C@@H](O)[C@H](O)[C@H]2O)ccc1O" ?
A) N

Q) And COC(=O)C1=CO[C@H](O)/C(=C/CO)[C@@H]1CC(=O)OCCc1ccc(O)c(O)c1 [10-hydroxyoleuropein aglycone] ?
A) N

Q) And C[C@]12CC[C@@H](O[C@@H]3O[C@H](C(=O)O)[C@@H](O)[C@H](O)[C@H]3O)C[C@@H]1CC[C@@H]1[C@@H]2C(=O)C[C@@]2(C)[C@H]1CC[C@]2(O)[C@@H](O)CO [cortolone-3-glucuronide] ?
A) Y

Q) And "COc1cc(C)cc(OC)c1OC" ?
A) N

Q) And COc1cc(C(=O)O)ccc1OS(=O)(=O)O [vanillic acid 4-O-sulfate isomer 1, vanillic acid 4-O-sulfate] ?
A) N

* * *

Please go through the items and note down their Cmax: relative maximum plasma level.
assay: Acute intervention: nutrikinetics of plasma metabolites after ingestion of O. europaea extract (untargeted HPLC-ESI-QTOF-MS); details: human plasma, 500 mg capsule of O. europaea (OE) extract, oral, mean ± SD
Where a name gives a salt, the structure may show the parent alone.

Q) Recorded Cmax: relative maximum plasma level for CC(=O)Oc1cc2c(c(C)c1OC(C)=O)CC=C1[C@@]2(C)CC[C@@]2(C)C3C[C@](C)(C(=O)O)CC[C@]3(C)CC[C@]12C (stereo partly drawn) [dihydrocelastryl diacetate] , please?
A) 239 ± 78 relative chromatographic area

Q) And COc1cc(CCO)ccc1OS(=O)(=O)O [homovanillyl alcohol sulfate] ?
A) 135 ± 32 relative chromatographic area

Q) And "Cc1cccc(O)c1O" ?
A) 307 ± 160 relative chromatographic area

Q) And O=C(/C=C/C1=CC(=O)C(=O)C=C1)OC1CC(O)(C(=O)O)CC(O)C1O (stereo not drawn) ?
A) 324 ± 7 relative chromatographic area

Q) And OC[C@H]1O[C@@H](OCc2ccoc2)[C@H](O)[C@@H](O)[C@@H]1O (single isomer, unassigned; isomer 1) [3-furanmethanol glucoside isomer 1, 3-furanmethanol glucoside] ?
A) 236 ± 104 relative chromatographic area

Q) And COc1cc(C(=O)O)ccc1OC1OC(C(=O)O)C(O)C(O)C1O (stereo not drawn) [vanillic acid glucuronide] ?
A) 111 ± 48 relative chromatographic area

Q) And COC(=O)C1=CO[C@H](O)/C(=C/CO)[C@@H]1CC(=O)OCCc1ccc(O)c(O)c1 [10-hydroxyoleuropein aglycone] ?
A) 194 ± 76 relative chromatographic area

Q) And O=C(O)CCCCCCCCC(=O)O [decanedioic acid isomer 2, decanedioic acid] ?
A) 112 ± 11 relative chromatographic area

Q) And COc1cc(C=CC(=O)O)ccc1OS(=O)(=O)O [ferulic acid 4-sulfate] ?
A) 142 ± 20 relative chromatographic area

Q) And Oc1cc(O)c2c(c1)O[C@H](c1ccc(O)c(O)c1)[C@H](O)[C@H]2SCc1ccccc1 [4β-benzylthioepicatechin] ?
A) 158 ± 62 relative chromatographic area

Q) And OC[C@H]1O[C@@H](OCc2ccoc2)[C@H](O)[C@@H](O)[C@@H]1O (single isomer, unassigned; isomer 2) [3-furanmethanol glucoside isomer 2, 3-furanmethanol glucoside] ?
A) 1234 ± 489 relative chromatographic area

Q) And O=C(O)CCCCCCCCC(=O)O [decanedioic acid isomer 1, decanedioic acid] ?
A) 232 ± 48 relative chromatographic area

* * *

assay: Acute intervention: nutrikinetics of plasma metabolites after ingestion of O. europaea extract (untargeted HPLC-ESI-QTOF-MS); conditions: 1 h after O. europaea extract
Structures can show the parent of a compound that is named as a salt.
TEST_READOUT: mean chromatographic area in plasma, T1
Enter a number only.

Q) Recorded mean chromatographic area in plasma, T1 for C[C@]12CC[C@@H](O[C@@H]3O[C@H](C(=O)O)[C@@H](O)[C@H](O)[C@H]3O)C[C@@H]1CC[C@@H]1[C@@H]2C(=O)C[C@@]2(C)[C@H]1CC[C@]2(O)[C@@H](O)CO [cortolone-3-glucuronide] , please?
A) 0

Q) And COc1cc(C=CC(=O)O)ccc1OS(=O)(=O)O [ferulic acid 4-sulfate] ?
A) 78

Q) And COc1cc(CCO)ccc1OS(=O)(=O)O [homovanillyl alcohol sulfate] ?
A) 94

Q) And "COc1cc(-c2oc3cc(O[C@@H]4O[C@@H](C)[C@H](O)[C@@H](O)[C@H]4O)cc(O)c3c(=O)c2O[C@@H]2O[C@H](CO)[C@@H](O)[C@H](O)[C@H]2O)ccc1O" ?
A) 130

Q) And OC[C@H]1O[C@@H](OCc2ccoc2)[C@H](O)[C@@H](O)[C@@H]1O (single isomer, unassigned; isomer 1) [3-furanmethanol glucoside isomer 1, 3-furanmethanol glucoside] ?
A) 200

Q) And COc1cc(C(=O)O)ccc1OC1OC(C(=O)O)C(O)C(O)C1O (stereo not shown) [vanillic acid glucuronide] ?
A) 37

Q) And O=C(Oc1cc(O)c2c(c1)O[C@H](c1cc(O)c(O)c(O)c1)[C@H](O)C2)c1cc(O)c(O)c(O)c1 [epigallocatechin 7-O-gallate] ?
A) 126

Q) And OC[C@H]1O[C@@H](OCc2ccoc2)[C@H](O)[C@@H](O)[C@@H]1O (single isomer, unassigned; isomer 2) [3-furanmethanol glucoside isomer 2, 3-furanmethanol glucoside] ?
A) 1234

Q) And CC(=O)Oc1cc2c(c(C)c1OC(C)=O)CC=C1[C@@]2(C)CC[C@@]2(C)C3C[C@](C)(C(=O)O)CC[C@]3(C)CC[C@]12C (stereo partly shown) [dihydrocelastryl diacetate] ?
A) 38

Q) And O=C(O)CCCCCCCCC(=O)O [decanedioic acid isomer 2, decanedioic acid] ?
A) 0
